Kindly state IC50 for each of the entries shown.
# experimental-system: human P2X2/3 receptor (Homo sapiens, UniProt P56373+Q9UBL9)
# Sequence (P56373 1-397): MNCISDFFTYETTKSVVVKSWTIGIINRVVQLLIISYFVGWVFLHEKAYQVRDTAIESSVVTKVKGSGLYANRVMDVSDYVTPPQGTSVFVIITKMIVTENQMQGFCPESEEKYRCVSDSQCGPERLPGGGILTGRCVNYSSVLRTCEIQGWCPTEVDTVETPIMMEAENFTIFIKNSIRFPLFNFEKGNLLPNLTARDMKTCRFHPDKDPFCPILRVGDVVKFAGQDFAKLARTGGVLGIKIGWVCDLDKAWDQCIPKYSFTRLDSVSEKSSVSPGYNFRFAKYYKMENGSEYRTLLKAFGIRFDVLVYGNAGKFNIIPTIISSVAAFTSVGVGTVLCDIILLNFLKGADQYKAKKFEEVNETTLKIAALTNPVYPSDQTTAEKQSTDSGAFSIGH
# Sequence (Q9UBL9 1-471): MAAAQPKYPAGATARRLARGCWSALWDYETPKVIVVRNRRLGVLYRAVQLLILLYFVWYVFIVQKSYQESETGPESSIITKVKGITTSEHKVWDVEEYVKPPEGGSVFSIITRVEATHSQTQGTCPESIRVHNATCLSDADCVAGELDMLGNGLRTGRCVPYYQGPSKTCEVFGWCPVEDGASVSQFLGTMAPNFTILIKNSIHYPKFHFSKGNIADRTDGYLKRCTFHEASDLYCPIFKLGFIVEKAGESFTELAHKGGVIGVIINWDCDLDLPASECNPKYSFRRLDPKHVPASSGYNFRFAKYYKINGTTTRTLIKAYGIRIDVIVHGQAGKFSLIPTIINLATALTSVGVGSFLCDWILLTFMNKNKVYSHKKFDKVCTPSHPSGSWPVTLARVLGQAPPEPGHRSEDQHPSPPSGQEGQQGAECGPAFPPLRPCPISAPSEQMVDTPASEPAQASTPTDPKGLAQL
# protocol-summary: Calcium fluorescence measurement: human P2X2/3 receptor activity inhibition (CHO-K1 cells, Fluo-8 NoWash, […])
# settings: CHO-K1 cells expressing human P2RX2/X3 channel; 10µM α,β-Met-ATP; read-out: h-P2X2/3 IC50

Request: System human P2X2/3 receptor (Homo sapiens, UniProt P56373+Q9UBL9). Read-out IC50. Item CC(C)(O)C1CN2C(=O)N(Cc3ccc(Cl)cc3)c3cc(N4CCOCC4)nnc3C2=N1 (centres unmarked) [Example 19] . Report value.
Response: > 30 µM

Request: // fetch IC50 for CC(C)(C)C1C(=O)N=C2c3ncc(N4CCOCC4)cc3N(Cc3ccc(Cl)cc3)C(=O)N21 (centres unmarked) [Example 21] ; system: human P2X2/3 receptor (Homo sapiens, UniProt P56373+Q9UBL9)
Response: 3.43 µM

Request: System human P2X2/3 receptor (Homo sapiens, UniProt P56373+Q9UBL9). Read-out IC50. Item COc1ccc(CN2C(=O)N3C(=NC(=O)C3C(C)(C)C)c3ncc(N4CCOCC4)cc32)cc1 (centres unmarked) [Example 20] . Report value.
Response: 28.5 µM

Request: # lookup: human P2X2/3 receptor (Homo sapiens, UniProt P56373+Q9UBL9) IC50, key = COc1ccc(Cn2c(=O)n3c(C(C)(C)C)nnc3c3ncc(N4CCNCC4)cc32)cc1 [Example 35]
Response: > 30 µM

Request: GET IC50 where system = human P2X2/3 receptor (Homo sapiens, UniProt P56373+Q9UBL9) and item = CC(C)(C)c1nnc2c3ncc(N4CCOCC4)cc3n(Cc3ccc(Br)cc3)c(=O)n12 [Example 31]
Response: 8.15 µM

These measurements were taken from patent EP4389746A2.
